Organism: Rattus norvegicus
METHOD_DESCRIPTION: Open TG-GATES - Regimen: Daily Repeat
Type: toxicity, organism-based, Sprague-Dawley
Parameters: regimen Daily Repeat, gender Male, age 6 weeks
CONDITION_SUMMARY: in vivo, po, 1000 mg/kg, […], tissue Blood, route gavage, dose level High, time 28 day
The reader will find reported Plat values listed item by item below.
MEASURED_METRIC: Plat (x10_4/uL)

{"SMILES_TEXT": "O=C(OC[C@H]1O[C@@H](OC(=O)c2cc(O)c(O)c(OC(=O)c3cc(O)c(O)c(O)c3)c2)[C@H](OC(=O)c2cc(O)c(O)c(OC(=O)c3cc(O)c(O)c(O)c3)c2)[C@@H](OC(=O)c2cc(O)c(O)c(OC(=O)c3cc(O)c(O)c(O)c3)c2)[C@@H]1OC(=O)c1cc(O)c(O)c(OC(=O)c2cc(O)c(O)c(O)c2)c1)c1cc(O)c(O)c(OC(=O)c2cc(O)c(O)c(O)c2)c1", "MEASURED_METRIC": "Plat", "UNIT_LABEL": "x10_4/uL", "QUANTITATIVE_READOUT": 118.3}
{"SMILES_TEXT": "CN/C(=N/CCSCc1nc[nH]c1C)NC#N", "MEASURED_METRIC": "Plat", "UNIT_LABEL": "x10_4/uL", "QUANTITATIVE_READOUT": 102.4}
{"SMILES_TEXT": "CCOc1ccc(NC(C)=O)cc1", "MEASURED_METRIC": "Plat", "UNIT_LABEL": "x10_4/uL", "QUANTITATIVE_READOUT": 106.4}
{"SMILES_TEXT": "Cc1nnc2n1-c1ccc(Cl)cc1C(c1ccccc1Cl)=NC2", "MEASURED_METRIC": "Plat", "UNIT_LABEL": "x10_4/uL", "QUANTITATIVE_READOUT": 112.9}
{"SMILES_TEXT": "COC(=O)C1=C(C)NC(C)=C(C(=O)OC)C1c1ccccc1[N+](=O)[O-]", "MEASURED_METRIC": "Plat", "UNIT_LABEL": "x10_4/uL", "QUANTITATIVE_READOUT": 134.4}
{"SMILES_TEXT": "CNC(=C[N+](=O)[O-])NCCSCc1ccc(CN(C)C)o1", "MEASURED_METRIC": "Plat", "UNIT_LABEL": "x10_4/uL", "QUANTITATIVE_READOUT": 113}
